assay: Nrf2 qHTS screen for inhibitors: Validation (AID 493153); details: A549 ARE-Fluc reporter, 18-24 h; luciferase luminescence
Inconclusive results are not listed. The source made the active and inactive calls. The call rests on the fitted dose curve; in most records, active means well fitted inhibition curve with a large enough effect in the main read-out, with a control signal flat (not every such curve was filed as active); inconclusive means small, poorly fitted or top-dose-only effect, or effect the other way, or a change in a side signal; inactive means no such curve, though single readings can be large or run the other way.
Outcome codes: class 1 (active), class 0 (inactive)

{"columns": ["smiles-str", "category"],
 "data": [
  ["CC(C)N(CCC(=O)c1ccc2ccccc2c1)Cc1ccccc1", "class 0"],
  ["Cc1nn(-c2ccccc2)c(C)c1/C=N/N1CCN(Cc2ccccc2)CC1", "class 0"],
  ["Brc1ccc([C@H]2CN3CCSC3=N2)cc1", "class 0"],
  ["O=[N+]([O-])c1ccc(-c2nc(-c3ccc(F)cc3)c(-c3ccncc3)[nH]2)cc1", "class 1"],
  ["C[N+](C)(C)CCO", "class 0"],
  ["NC(N)=NCCCCN=C(N)N", "class 0"],
  ["Clc1ccc2c(c1)N=C(N1CCNCC1)c1ccccc1N2", "class 0"],
  ["O=C1NC(c2cccc([N+](=O)[O-])c2)=CCN1c1ccccc1O", "class 0"],
  ["COc1ccccc1N1CCN(CCN2C(=O)CC3(CCCC3)CC2=O)CC1", "class 0"],
  ["CCN(CC)CCNC(=O)c1ccc(NS(C)(=O)=O)cc1", "class 0"]
]}
